B1: ADAMTS4 (parent)
chain: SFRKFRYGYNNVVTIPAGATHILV

- Variants of: B1
- Assay Name: protein stability index of a GFP-peptide fusion (GPS, HEK-293T) (PSI 1-6); higher = more stable;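 also: lentivirally expressed fusions sorted by FACS into six bins by GFP to DsRed ratio, PSI derived from sequencing read proportions per bin multiplied by bin number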
- Condition Summary: c terminus: a fixed tail appended
Use 2 as the dividing line for protein stability index, with the line itself on the label 1 side and lower values as label 0.

• I15E = label 1
• I22C = label 1
• V24Y = label 1
• H21C = label 1
• Y9H = label 1

Please indicate if the recorded protein stability index for F5D meets or exceeds 2.
label 1

Try this variant next: A17D
label 0

Try this variant next: G8M
label 1

The reported numbers originate from the supplement of paper PMC10567573.
